Source: patent US6432655B1

ASSAY TARGET: human 5-HT4B receptor (clone hp78a) (Homo sapiens, UniProt P34969)
Construct: The entire coding region of the human 5-HT4B receptor (1338 bp); expressed in transfected cells; host or cells: Cos-7 (monkey kidney), transient, plasmid hp78a/EXJ (pcEXV-5HT4B)
Sequence (P34969 1-445 isoform P34969-2): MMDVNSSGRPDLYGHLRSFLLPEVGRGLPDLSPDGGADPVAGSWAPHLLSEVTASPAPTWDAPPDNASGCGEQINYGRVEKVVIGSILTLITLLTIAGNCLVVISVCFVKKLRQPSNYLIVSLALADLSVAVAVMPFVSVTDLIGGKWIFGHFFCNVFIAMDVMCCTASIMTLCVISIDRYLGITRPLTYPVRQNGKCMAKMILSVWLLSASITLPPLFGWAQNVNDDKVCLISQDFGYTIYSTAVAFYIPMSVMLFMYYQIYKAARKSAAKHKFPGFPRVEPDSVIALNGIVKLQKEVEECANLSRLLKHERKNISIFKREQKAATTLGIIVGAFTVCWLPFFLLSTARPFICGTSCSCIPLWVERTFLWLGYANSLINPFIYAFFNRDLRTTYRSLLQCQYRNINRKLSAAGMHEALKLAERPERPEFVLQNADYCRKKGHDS
METHOD: [3H]5-HT radioligand binding to membranes of Cos-7 cells transiently expressing clone hp78a
CONDITION INFO: read-out: Ki (apparent dissociation constants for clone hp78a)
MEASURED QUANTITY: Ki (nM)
// return numeric value only (unit: nM, not printed)

[
  {
    "COMPOUND": "COC(=O)[C@@H]1[C@H]2C[C@H]3c4[nH]c5ccccc5c4CCN3C[C@@H]2CC[C@@H]1O [Yohimbine]",
    "ASSAY TARGET": "human 5-HT4B receptor (clone hp78a) (Homo sapiens, UniProt P34969)",
    "Ki / nM": 2850
  }
]

Looking up CCCN(CCC)CCc1c[nH]c2ccc(C(N)=O)cc12 [Dipropyl-5-carboxamidotryptamine] , I see its Ki listed as 37

Looking up CC[C@@H](CO)NC(=O)[C@@H]1C=C2c3cccc4c3c(cn4C)C[C@H]2N(C)C1 [Methysergide] , I see its Ki listed as 83
